measured_on: human 5-HT2AR (Homo sapiens, UniProt P28223)
Construct: expressed in transfected cells
Sequence (P28223 whole entry): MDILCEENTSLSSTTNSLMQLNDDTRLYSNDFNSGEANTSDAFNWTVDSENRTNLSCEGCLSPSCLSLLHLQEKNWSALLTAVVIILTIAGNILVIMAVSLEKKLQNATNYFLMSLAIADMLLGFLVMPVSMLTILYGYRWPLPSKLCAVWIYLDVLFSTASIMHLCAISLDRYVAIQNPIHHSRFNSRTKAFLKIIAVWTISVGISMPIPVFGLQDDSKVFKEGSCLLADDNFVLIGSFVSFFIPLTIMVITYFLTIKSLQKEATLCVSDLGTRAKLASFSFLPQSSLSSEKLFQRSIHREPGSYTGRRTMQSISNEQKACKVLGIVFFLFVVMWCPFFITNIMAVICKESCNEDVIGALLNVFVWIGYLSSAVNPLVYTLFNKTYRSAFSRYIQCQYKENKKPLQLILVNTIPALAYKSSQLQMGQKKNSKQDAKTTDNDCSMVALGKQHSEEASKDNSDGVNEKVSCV
protocol_description: biochemical
Assay type: binding
details: read-out: binding affinity (Ki) 5-HT2AR
measured_endpoint: Ki

>>> obs_value("Nc1ccc(Cn2c(CN3CCCC3)nc3ccccc32)cc1")
"> 10 µM"
>>> obs_value("CCCn1c(CN2CCCC2)nc2ccccc21")
"> 10 µM"
>>> obs_value("c1ccc2c(c1)nc(CN1CCCC1)n2CC1CCCC1")
"> 10 µM"
>>> obs_value("Fc1ccc(Cn2c(CN3CCCC3)nc3ccccc32)cc1")
"0.015 µM"

* * *

measured_on: human 5-HT2CR (Homo sapiens, UniProt P28335)
Construct: expressed in transfected cells
Sequence (P28335 33-458): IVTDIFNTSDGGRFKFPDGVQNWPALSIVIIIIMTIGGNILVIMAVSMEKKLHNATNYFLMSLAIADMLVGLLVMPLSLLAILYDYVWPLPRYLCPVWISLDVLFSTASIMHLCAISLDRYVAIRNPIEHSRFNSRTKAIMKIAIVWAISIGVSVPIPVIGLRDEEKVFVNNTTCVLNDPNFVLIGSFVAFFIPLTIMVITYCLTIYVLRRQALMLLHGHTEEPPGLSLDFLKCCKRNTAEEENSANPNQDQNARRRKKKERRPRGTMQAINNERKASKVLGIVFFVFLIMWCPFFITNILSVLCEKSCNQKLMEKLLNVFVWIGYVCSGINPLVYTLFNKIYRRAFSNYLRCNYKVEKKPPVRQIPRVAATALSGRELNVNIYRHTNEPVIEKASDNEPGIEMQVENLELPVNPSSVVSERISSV
protocol_description: Radioligand binding assay (NIMH PDSP), 5-HT2CR
details: read-out: binding affinity (Ki) 5-HT2CR
pKi: −log10 of the molar value.
Reported pKi is given for each of the following compounds.
measured_endpoint: pKi

>>> obs_value("c1cn(CC2CCCCC2)c(CN2CCCC2)n1")
"< 5.00"
>>> obs_value("c1ccc2c(c1)nc(CN1CCCC1)n2CC1CCCC1")
"< 5.00"
>>> obs_value("Clc1ccc(Cn2c(CN3CCCCC3)nc3ccccc32)cc1")
5.34
>>> obs_value("c1ccc(Cn2c(CN3CCCC3)nc3ccccc32)cc1")
6.53
>>> obs_value("FC1(F)CCC(Cn2c(CN3CCCC3)nc3ccccc32)CC1")
"< 5.00"
>>> obs_value("N#Cc1cccc(Cn2c(CN3CCCC3)nc3ccccc32)c1")
"< 5.00"
>>> obs_value("CCCn1c(CN2CCCC2)nc2ccccc21")
"< 5.00"
>>> obs_value("FC(F)(F)c1ccc(Cn2c(CN3CCCC3)nc3ccccc32)cc1")
"< 5.00"
>>> obs_value("Clc1ccc(Cn2c(CN3CCSC3)nc3ccccc32)cc1")
5.96
>>> obs_value("Nc1ccc(Cn2c(CN3CCCC3)nc3ccccc32)cc1")
"< 5.00"
>>> obs_value("Clc1ccc(Cn2c(CN3CCOCC3)nc3ccccc32)cc1")
"< 5.00"
>>> obs_value("Fc1ccc(Cn2c(CN3CCCC3)nc3ccccc32)cc1")
6.46
>>> obs_value("CN1CCN(Cc2nc3ccccc3n2Cc2ccc(Cl)cc2)CC1")
6.50
